System: Mycobacterium tuberculosis
Assay: Antimicrobial activity against isoniazid-resistant Mycobacterium tuberculosis isolate by alamar blue assay
Type: functional
Assign MIC to each entry below.
The response must be a number in µg/mL with no trailing unit.

Consider CC1(C)CC[C@]23CO[C@@]4(CC[C@@H]5[C@@]6(C)CC[C@H](O)C(C)(C)[C@@H]6CC[C@@]5(C)[C@]4(C)C[C@H]2O)[C@@H]3C1 [PROTOPRIMULAGENIN A] . Its measured MIC is 200

In plain terms, CO[C@H]1/C=C/O[C@@]2(C)Oc3c(C)c(O)c4c(O)c(c(/C=N/N5CCN(C)CC5)c(O)c4c3C2=O)NC(=O)/C(C)=C\C=C\[C@H](C)[C@H](O)[C@@H](C)[C@@H](O)[C@@H](C)[C@H](OC(C)=O)[C@@H]1C [RIFAMPIN] has a documented MIC of 0.063

# MIC (molecule: NNC(=O)c1ccncc1 [ISONIAZID] ) is 2

Value of MIC reported for the molecule CC1(C)CC[C@]23CO[C@@]4(CC[C@@H]5[C@@]6(C)CC[C@H](O)C(C)(C)[C@@H]6CC[C@@]5(C)[C@]4(C)CC2=O)[C@@H]3C1 [AEGICERIN] is 1.6
